Data origin, for the record: the supplement of paper PMC8882468

System: HCI-023 (organoid from a triple-negative breast cancer xenograft)
Method description: CTG-3D luminescence at 96 h relative to day-0 seeding control (ratio to day 0); higher = more growth / less cytotoxicity; PDxO 3D drug screen, 96 h, CTG-3D normalised to day-0 seeding control.
Condition context: 0.00025 µM; days in culture: 111
Measured CTG-3D luminescence at 96 h accompanies every entry in the list below.

[
  {
    "Molecule": "CN(Cc1cnc2nc(N)nc(N)c2n1)c1ccc(C(=O)N[C@@H](CCC(=O)O)C(=O)O)cc1 [methotrexate]",
    "CTG-3D luminescence at 96 h": 1.42
  },
  {
    "Molecule": "CCN1CCN(Cc2ccc(Nc3ncc(F)c(-c4cc(F)c5nc(C)n(C(C)C)c5c4)n3)nc2)CC1",
    "CTG-3D luminescence at 96 h": 1.22
  },
  {
    "Molecule": "CCN(c1cc(C#CCN2CCOCC2)cc(C(=O)NCc2c(C)cc(C)[nH]c2=O)c1C)[C@H]1CC[C@H](N(C)CCOC)CC1",
    "CTG-3D luminescence at 96 h": 1.38
  }
]

We next turn to a different molecule, shown below.
Qu. Reported CTG-3D luminescence at 96 h for `CNC(=O)c1cccc(-c2ccc3c(N4CCOC[C@@H]4C)nc(N4CCOC[C@@H]4C)nc3n2)c1` : what is it?
Ans. 1.27

----------
Measured CTG-3D luminescence at 96 h accompanies every entry in the list below.
Test system: HCI-002 (organoid from a triple-negative breast cancer xenograft)
Method description: CTG-3D luminescence at 96 h relative to day-0 seeding control (ratio to day 0); higher = more growth / less cytotoxicity; PDxO 3D drug screen, 96 h, CTG-3D normalised to day-0 seeding control.
Condition context: 100 µM; days in culture: 209
Just the number, please, no unit attached.

Below are worked cases with known answers.
[
  {
    "Compound": "NC(=O)c1cccc2cn(-c3ccc([C@@H]4CCCNC4)cc3)nc12 [niraparib]",
    "Parameter measured": "CTG-3D luminescence at 96 h",
    "Endpoint result": -0.0818
  },
  {
    "Compound": "O=C(/C=C/c1cccnc1)NCCCCC1CCN(C(=O)c2ccccc2)CC1 [FK866]",
    "Parameter measured": "CTG-3D luminescence at 96 h",
    "Endpoint result": 0.062
  },
  {
    "Compound": "NC(=O)Nc1cc(-c2cccc(F)c2)sc1C(=O)N[C@H]1CCCNC1 [AZD7762]",
    "Parameter measured": "CTG-3D luminescence at 96 h",
    "Endpoint result": 0.00089
  },
  {
    "Compound": "CC(=O)O[C@H]1C(=O)[C@@]2(C)[C@H]([C@H](OC(=O)c3ccccc3)[C@]3(O)C[C@H](OC(=O)[C@H](O)[C@@H](NC(=O)c4ccccc4)c4ccccc4)C(C)=C1C3(C)C)[C@]1(OC(C)=O)CO[C@@H]1C[C@@H]2O [paclitaxel]",
    "Parameter measured": "CTG-3D luminescence at 96 h",
    "Endpoint result": 0.174
  },
  {
    "Compound": "COc1cccc2c1C(=O)c1c(O)c3c(c(O)c1C2=O)C[C@@](O)(C(=O)CO)C[C@@H]3O[C@H]1C[C@H](N)[C@H](O)[C@H](C)O1 [doxorubicin]",
    "Parameter measured": "CTG-3D luminescence at 96 h",
    "Endpoint result": 0.00843
  }
]

Qu. Given the entry C[C@H](NC(=O)CCC(F)(F)F)C(=O)N[C@@H]1C(=O)N(CCO)c2ncccc2-c2ccccc21 [crenigacestat] , what CTG-3D luminescence at 96 h was observed with HCI-002?
Ans. 2.41

Qu. Next: Cc1nc(-c2cn3c(n2)-c2ccc(-c4cnn(C(C)(C)C(N)=O)c4)cc2OCC3)n(C(C)C)n1 [taselisib]
Ans. 0.0139

Qu. Next: O=C(O)C1(C(=O)O)CCC1.[NH2-].[NH2-].[Pt+2] [carboplatin]
Ans. 0.74

Qu. Next: CS(=O)(=O)c1ccc(C(=O)Nc2ccc(Cl)c(-c3ccccn3)c2)c(Cl)c1 [vismodegib]
Ans. 0.207

Qu. Next: CCc1c2c(nc3ccc(O)cc13)-c1cc3c(c(=O)n1C2)COC(=O)[C@]3(O)CC [SN-38]
Ans. 0.0205

Qu. Next: CC1(C)CCC(c2ccc(Cl)cc2)=C(CN2CCN(c3ccc(C(=O)NS(=O)(=O)c4ccc(N[C@H](CCN5CCOCC5)CSc5ccccc5)c(S(=O)(=O)C(F)(F)F)c4)cc3)CC2)C1 [navitoclax]
Ans. -0.00717

----------
Tested on: HCI-012 (organoid from a breast cancer xenograft)
Method description: CTG-3D luminescence at 96 h relative to day-0 seeding control (ratio to day 0); higher = more growth / less cytotoxicity; PDxO 3D drug screen, 96 h, CTG-3D normalised to day-0 seeding control.
Condition context: 0.00025 µM; days in culture: 162
Measured CTG-3D luminescence at 96 h accompanies every entry in the list below.
Just the number, please, no unit attached.

Below are worked cases with known answers.
[
  {
    "Compound structure": "Cc1cc(Nc2ncc(Cl)c(Nc3ccccc3S(=O)(=O)C(C)C)n2)c(OC(C)C)cc1C1CCNCC1",
    "CTG-3D luminescence at 96 h": 2.04
  },
  {
    "Compound structure": "CCN(c1cc(C#CCN2CCOCC2)cc(C(=O)NCc2c(C)cc(C)[nH]c2=O)c1C)[C@H]1CC[C@H](N(C)CCOC)CC1",
    "CTG-3D luminescence at 96 h": 2.39
  }
]

We next turn to a different compound, shown below.
Qu. Reported CTG-3D luminescence at 96 h for `NC(=O)c1cccc2cn(-c3ccc([C@@H]4CCCNC4)cc3)nc12` : what is it?
Ans. 2.45

----------
Measured CTG-3D luminescence at 96 h accompanies every entry in the list below.
Test system: HCI-010 (organoid from a breast cancer xenograft)
Method description: CTG-3D luminescence at 96 h relative to day-0 seeding control (ratio to day 0); higher = more growth / less cytotoxicity; PDxO 3D drug screen (set 2), 96 h, CTG-3D normalised to day-0 seeding control.
Condition context: 12.5 pM; days in culture: 102
Just the number, please, no unit attached.

[
  {
    "Compound structure": "CS(=O)(=O)CCNCc1ccc(-c2ccc3ncnc(Nc4ccc(OCc5cccc(F)c5)c(Cl)c4)c3c2)o1",
    "Tested on": "HCI-010",
    "CTG-3D luminescence at 96 h": 1.1
  },
  {
    "Compound structure": "CO[C@H]1C[C@@H]2CC[C@@H](C)[C@@](O)(O2)C(=O)C(=O)N2CCCC[C@H]2C(=O)O[C@H]([C@H](C)C[C@@H]2CC[C@@H](OCCO)[C@H](OC)C2)CC(=O)[C@H](C)/C=C(\\C)[C@@H](O)[C@@H](OC)C(=O)[C@H](C)C[C@H](C)/C=C/C=C/C=C/1C",
    "Tested on": "HCI-010",
    "CTG-3D luminescence at 96 h": 1.16
  },
  {
    "Compound structure": "Nc1cc(C(F)(F)F)c(-c2cc(N3CCOCC3)nc(N3CCOCC3)n2)cn1",
    "Tested on": "HCI-010",
    "CTG-3D luminescence at 96 h": 1.08
  },
  {
    "Compound structure": "CC(=O)c1c(C)c2cnc(Nc3ccc(N4CCNCC4)cn3)nc2n(C2CCCC2)c1=O",
    "Tested on": "HCI-010",
    "CTG-3D luminescence at 96 h": 1.09
  }
]

We next turn to a different molecule, shown below.
Qu. Reported CTG-3D luminescence at 96 h for `CC(C)n1nc(-c2ccc3oc(N)nc3c2)c2c(N)ncnc21` : what is it?
Ans. 1.31

----------
System: HCI-010
Method description: CTG-3D luminescence at 96 h relative to day-0 seeding control (ratio to day 0); higher = more growth / less cytotoxicity; PDxO 3D drug screen, 96 h, CTG-3D normalised to day-0 seeding control.
Condition context: 12.5 pM; days in culture: 103
Parameter measured: CTG-3D luminescence at 96 h
Just the number, please, no unit attached.

Below are worked cases with known answers.
[
  {
    "Compound structure": "C[C@@H]1COCCN1c1cc(C2([S@](C)(=N)=O)CC2)nc(-c2cc[nH]c3nccc2-3)n1",
    "Tested on": "HCI-010",
    "CTG-3D luminescence at 96 h": 3.6
  },
  {
    "Compound structure": "C[C@H](NC(=O)CCC(F)(F)F)C(=O)N[C@@H]1C(=O)N(CCO)c2ncccc2-c2ccccc21",
    "Tested on": "HCI-010",
    "CTG-3D luminescence at 96 h": 3.59
  },
  {
    "Compound structure": "CS(=O)(=O)c1ccc(C(=O)Nc2ccc(Cl)c(-c3ccccn3)c2)c(Cl)c1",
    "Tested on": "HCI-010",
    "CTG-3D luminescence at 96 h": 2.84
  },
  {
    "Compound structure": "CC1(C)CCC(c2ccc(Cl)cc2)=C(CN2CCN(c3ccc(C(=O)NS(=O)(=O)c4ccc(N[C@H](CCN5CCOCC5)CSc5ccccc5)c(S(=O)(=O)C(F)(F)F)c4)cc3)CC2)C1",
    "Tested on": "HCI-010",
    "CTG-3D luminescence at 96 h": 3.2
  }
]

Qu. Reported CTG-3D luminescence at 96 h for `O=C(O)C1(C(=O)O)CCC1.[NH2-].[NH2-].[Pt+2]` : what is it?
Ans. 3.69

Qu. Next: `CC(C)n1nc(-c2ccc3oc(N)nc3c2)c2c(N)ncnc21`
Ans. 3.65

Qu. Next: `CCN1CCN(Cc2ccc(Nc3ncc(F)c(-c4cc(F)c5nc(C)n(C(C)C)c5c4)n3)nc2)CC1`
Ans. 3.48

Qu. Next: `Nc1ccn([C@@H]2O[C@H](CO)[C@@H](O)C2(F)F)c(=O)n1`
Ans. 3.39
